Here the recorded pIC50 is given for each entry.
Target: [35S]-TBPS binding, rat brain cortical membranes
Assay: Steroid inhibition of [35S]-TBPS binding
Conditions: 3 nM [35S]-TBPS, in the presence of 5 μM GABA
Experimental: Steroid Inhibition of TBPS Binding […] Briefly, cortices are rapidly removed following decapitation of carbon dioxide-anesthetized Sprague-Dawley rats (200-250 g). […] Nonspecific binding is determined in the presence of 2 μM unlabeled TBPS and ranged from 15 to 25%. […] Filter bound radioactivity is measured by liquid scintillation spectrometry. […]
pIC50: −log10 of the molar value.

The examples below pair each entry with its known result.
> print(dat)
                                    compound      measured
 1  C[C@@]1(O)CC[C@@H]2[C@H]3CC[C@]4(C)[C@@H](C(=O)CN5CCOCC5)CC[C@H]4[C@@H]3C[C@@H](F)[C@H]2C1        ≤ 6.30
 2  C[C@@]1(O)CC[C@H]2[C@@H](CC[C@@H]3[C@@H]2CC[C@]2(C)[C@@H](C(=O)CN4CCC(O)CC4)CC[C@@H]32)C1        ≤ 6.30
 3  C[C@@H]1COCCN1CC(=O)[C@H]1CC[C@H]2[C@@H]3CC[C@@H]4C[C@](C)(O)CC[C@@H]4[C@H]3CC[C@]12C  6.30 to 7.00
 4  COC[C@@]1(O)CC[C@H]2[C@@H](CC[C@@H]3[C@@H]2CC[C@]2(C)[C@@H](C(=O)CN4CCOCC4)CC[C@@H]32)C1        ≤ 6.30
 5  C[C@@H]1C[C@H]2[C@@H](CC[C@@H]3[C@@H]2CC[C@]2(C)[C@@H](C(=O)CN4CCOCC4)CC[C@@H]32)C[C@]1(C)O  6.30 to 7.00
 6  CC[C@@]1(O)CC[C@H]2[C@@H](CC[C@@H]3[C@@H]2CC[C@]2(C)[C@@H](C(=O)CN4CCOCC4)CC[C@@H]32)C1        ≤ 6.30
 7  C[C@@]1(O)CC[C@H]2[C@H](CC[C@@H]3[C@@H]2CC[C@]2(C)[C@@H](C(=O)CN4CCCOCC4)CC[C@@H]32)C1  6.30 to 7.00
 8  C[C@H]1C[C@H]2[C@@H](CC[C@@H]3[C@@H]2CC[C@]2(C)[C@@H](C(=O)CN4CCOCC4)CC[C@@H]32)C[C@]1(C)O  6.30 to 7.00
 9  C[C@@]1(O)CC[C@H]2[C@@H](CC[C@@H]3[C@@H]2CC[C@]2(C)[C@@H](C(=O)CN4CCNCC4)CC[C@@H]32)C1        ≤ 6.30
10  C[C@@]1(O)CC[C@H]2[C@H](CC[C@@H]3[C@@H]2CC[C@]2(C)[C@@H](C(=O)CN4CCNCC4)CC[C@@H]32)C1 [Entry 51]  6.30 to 7.00

Request: Requested field: pIC50. Item: C[C@@H]1C[C@H]2[C@@H](CC[C@@H]3[C@@H]2CC[C@]2(C)[C@@H](C(=O)CN4CCN(S(C)(=O)=O)CC4)CC[C@@H]32)C[C@]1(C)O
Result: 7.00 to 7.30

Request: Next up: C[C@@]1(O)CC[C@@H]2[C@H]3CC[C@]4(C)[C@@H](C(=O)CN5CCOCC5)CC[C@H]4[C@@H]3C[C@@H](F)[C@@H]2C1
Result: ≤ 6.30
